Here the recorded polymerase ribozyme fitness (log ratio) is given for each entry.
B1: TPR t1 (parent)
chain: GACCAAUCUGCCCUCAGAGCUCGAGAACAUCUUCGGAUGCAGAGGAGGCAGGCUUCGGUGGCGCGAUAGCGCCAACGUCCUCAACCUCCAAUGCAUCCCACCACAUGAUGAUGCCUGAAGAGCCUUGGUUUUUUG

- Variants of: B1
- Experiment notes: polymerase ribozyme fitness, log enrichment relative to wild type (log ratio); higher = more active; in vitro selection for triplet polymerase activity

Sequence record	polymerase ribozyme fitness (log ratio)
GACCAAUCGGCCCUCAGCGCUCGAGAACAUCUUCGGAUGCAGAGGAGGCAGGCUUCGGUGGCGCGAUAGCGCCAACGUCCUCAACCUCCAAUGCAUCCCACCACAUGAUGAUGCCUAAAGAGCCUUGGUUUUUUG [U9G A18C G117A]	0.733
GACCAAUCUGCCCUCAGAGCUCGAGAAUAUCUUCGGAUGCGGAGGAGGCAGGCUUCGGUGGCGCGAUAGCGCCAACGUCCUCAACCUCCAAUGCAUCCCACCACAUGAUGAUGCCUGAAGCGCCUUGGUUUUUUG [C28U A41G A121C]	-0.919
GACCAAUCUGCCCUCAGAGCUCGAGAACAUCCUCGGAUGUAGAGGAGGCAGGCUUCGGUGGCGCGAUAGCGCCAACGUCCUCAACGUCCAAUGCAUCCCACCACAUGAUGAUGCCUGAAGAGCCUUGGUUUUUUG [U32C C40U C86G]	-2.2
GACCAAUCUGCCCUCAGAUCUCGAGAACAUCUUCGGAUGCAGAGGAGGCAGGCUUCGGUGGCGCGAUAGCGCCAACGUCAUCAACCUCCAAUGCAUCCCACCACAUGAUGAUACCUGAAGAGCCUUGGUUUUUUG [G19U C80A G113A]	-5
GACCAAUCUGCCCUCAGAGCUCGAGAACAUCUUCGGAUGCAGAGGAGGCAGGCUUCGGUGGCGCGAUAGGGCCAACGUCCUCAACUUCCAAUGCAUCCCACCACAUGAUUAUCCCUGAAGAGCCUUGGUUUUUUG [C70G C86U G110U G113C]	-6.29
GACCAAUCUGCCCUCAGAGCUCGAGAACAUCUUCGGAUGCAGAGGAGGCAAGCUUCGGUGGCGCGAUAGCGCCAACGUCCUCAAUCUCCAAUGCAUCCCACCACAUGAUGAUGCCUGAAGAGCCUUGGUUUUUUG [G51A C85U]	-3.77
GACCAAUCUGCCCUCAGAGCUCGAGCACAUCUUCGGAUGCAGGGGAGGCAGGCUUCGGUGGCCCGAUAACGCCAACGUCCUCAACCUCCAAUGCAUCCCACCACAUGAUGAUGCGUGAAGAGCCUUGGUUUUUUG [A26C A43G G63C G69A C115G]	-4.47
GACCAAUAUGCCCUCAGAGCUCGAGAACAUCUUCGGAUGCAGAGGAGGCAGGCUUCGGUGUCGCGAUAGCGCCAACGUCCUCCACCUCCAAUGCAUCCCCCCACAUGAUGAUGCCUGAAGAGCCUUGGUUUUUUG [C8A G61U A83C A100C]	-0.341
GACCAAUCUGCCCUCAGAGCUCGAGAACAUCUUCGGAUGCAGAGGAGGCAGGCUUCGGUGGCGCGAUAGCGGCAACGUCCUCAACCUCCAAUGCAUCCCACCACAUGAUGAUGCCUGAAGAGCCUUAGUUUUUUG [C72G G127A]	-1.26
GACCAAUCUGCCCUCAGAGCUCGAGAACAUCUUCGGAUGCAGAGGAGGCAGGCUUCGGUGGCGCGAUAGCGCCAACGUCCUCAACCUCCAAUGCAUCCCUCCACAUGAUGAUGCCUGAAGAGCCUUGGUUUUUUG [A100U]	-0.595
GACCAAUCUGCCCUCAGAGCUCGAGAACAUCUUCGGAUGCAGAGGAGGCAGGCUUCGGUGGGGCGAUAGCGCCAACGUCCUCAACCUCCAAUGCAUCCCACCACAUGAUGAAGCCUGAAGAGCCUUGGUUUUUUG [C62G U112A]	-0.878
GACCAAUCUGCCCUCAGAGCUCGAGAACAUCUUCGGAUGCAGAGGAGGCAGGCUUCGGUGGCGCGAUAGCGCUAACGUCCUCAACCUCCAAUGCAUCCCACCACAAGAUGAUGCCUGAAGAGCCUUGGUUUUUUG [C73U U106A]	-0.212
GCCCAAUCUGCCCUCAGAGCUCGAGAACAUCUUCGGAUGCAGAGGAGGGAGGCUUCGGUGGCCCGAUAGCGCCUUCGUCCUCAACCUCCAAUGCAUCCCACCACAUGAUGAUGCCUGAAGAGCAUUGGUUUUUUG [A2C C49G G63C A74U A75U C124A]	-3.35
GACCAAUCUGCCCUCAGAGCUCGAGAACAUCUUCGGAUGCAGAGGAGGCAGGCUUCGGUGGCACGAUAGCGCCAACGUCCUCAACCUCCAAUGCAUUCCACCACAUGAUGAUGCAUGAAGAGCCUUGGUUUUUUG [G63A C97U C115A]	-0.416
GACCAAUCUGCCCUCAGAGCUCGAGAACAUCUUCGGAUGCAGAGGAGGCAGGCUUCGGUGGCGCGAUAGCGCCAACGUCCUCAACCUCCAAUGCAUCCCACCACAUGAUGAUGGCUGAAGAGCCUUGGUUUUUUG [C114G]	-2.37
GACCAAUCUGCCCUCAGAGCUCGAGAACAUCUUCGGAUGCAGAGCAGGCAGGCUUCGGUGGCGCGAUAGCGCCAACGUCCUCAACCUCCAAUGCAUCCCGCCACAUGAUGAUGCCUGAAAAGCCUUGGUUUUAUG [G45C A100G G120A U133A]	-2.23
GACCAAUCUGCCCUCAGAGCUCGAGAACAUCUUCGGAUGCAGAGGAGGCAGGCUUCGGUCGCGCGAUAGCGCCAACGUCCUCAACCUCCAAUGCAUCCCACCACAUAAUGAUGCCUGAAGAGCCUUGGUUUUUUG [G60C G107A]	-5.47
GACCAAUCUGCCCUCAGAGCUCGAGAACAUCUUCGGAUGCAGAGGAGGCGGGCUUAGGUGGCGCGAUAGCGCCAACGUCCUAAACCUCCAAUGCAUCCCACCACAUGAUGAUGCCUGAAGAGCCUUGGUUCUUUG [A50G C56A C82A U131C]	-1.25
GACAAAUCUGCCCUCAGAGCUCGAGAACAUCUUAGGAUGCAGAGGAGGCAGGCUUCGGUGGCGCGAUAGCUCCAACGUCCUCAACCUCCAAUGCAUCCCACCACAUGAUGAUGCCUGAAGAGCCUUGGUUUUUUG [C4A C34A G71U]	-4.3
GACCAAUCUGCCCUCAGAGCUCGAGAACAUCUUCGGAUGCAGAGGAGGCAGGCUUCGGUGGCGCGAUAGCACCAACGUCCUUAACCUCCAAUGCAUCCCACCACAUGAUUAUGCCUGAAGAGCCUUGGUUUUUUG [G71A C82U G110U]	-2.94
GACCAAUCUGCCCGCAGAGCUCGAGAACAUCUUCGGAUGCAGAGGAUGCAGGCUUCGGUGGCGCGAUAGCGCCAACGUCCUCAACCUCCAAUGCAUCCCAGCACAUGAUGAUGCCUGAAUAGCCUUGGUUUUUUG [U14G G47U C101G G120U]	-4.67
GACCAAUCUGCCCUCAGAGCUCGAGAACAUCUUCGGAUGCAGAGGAGGCAGGCUUCCAUGGCGCGAUAGCGCCAACGUCCUCAACCUCCAAUGCAUCCCACCACAUGAUGAUGUCUGAAGAGCCUUGGUUUUUUG [G57C G58A C114U]	-3.53
